- Tested on: L1210 leukemia ip in BDF1 mice, survival T/C
- assay.text: NCI In Vivo Anticancer Drug Screen. Data for tumor model L1210 Leukemia (intraperitoneal) in B6D2F1 (BDF1) mice
- test.context: endpoint: mean survival time; dose: 20.0 mg/kg/injection; schedule: Q01DX001 (ip); vehicle: saline; higher = longer survival
Inconclusive results and toxic doses are left out.
readout.label: T/C

Checklist item: T/C tested on L1210 leukemia ip in BDF1 mice, survival T/C, entry COc1ccccc1CC(C)N (stereo not given) , value?
102 % of control

Please answer likewise for COC(=O)CCS
101 % of control

Please answer likewise for C[n+]1c2ccccc2nc2c(N)cc(N)cc21
101 % of control

Please answer likewise for CCCCC(=O)C1CN(C(C)(C)C)C1
102 % of control

Please answer likewise for [Cl][Hg][S]C1CCCC1
101 % of control
